MEASUREMENT_DESCRIPTION: Pharmacokinetics of rhodomyrtone in rats after a single oral dose (HPLC-UV plasma analysis, non-compartment model)
Format: in vivo, Sprague Dawley rats
MEASUREMENT_CONTEXT: male, Sprague Dawley, plasma; rat, single oral dose 50 mg/kg, n = 12

{"COMPOUND": "CC(C)CC(=O)c1c(O)cc2c(c1O)[C@@H](CC(C)C)C1=C(O2)C(C)(C)C(=O)C(C)(C)C1=O [rhodomyrtone, Rhodomyrtone]", "CL/F": "266 mL/min/kg"}

---

MEASUREMENT_DESCRIPTION: Pharmacokinetics of rhodomyrtone in rats after a single oral dose (HPLC-UV plasma analysis, non-compartment model)
Type: in vivo, Sprague Dawley rats
MEASUREMENT_CONTEXT: male, Sprague Dawley, rat, plasma, po, 50 mg/kg, rat, single oral dose 50 mg/kg, n = 12; read-out: Vz/F
ASSAY_READOUT: Vd/F (L/kg)

{"CHEM_SMILES": "CC(C)CC(=O)c1c(O)cc2c(c1O)[C@@H](CC(C)C)C1=C(O2)C(C)(C)C(=O)C(C)(C)C1=O", "U": "L/kg", "OBSERVED": 48.5}

---

MEASUREMENT_DESCRIPTION: Pharmacokinetics of rhodomyrtone in rats after a single oral dose (HPLC-UV plasma analysis, non-compartment model)
Format: in vivo, Sprague Dawley rats
MEASUREMENT_CONTEXT: male, Sprague Dawley, rat, plasma, po, 100 mg/kg, rat, single oral dose 100 mg/kg, n = 12; read-out: Vz/F
Description: The HPLC method was used to quantify the concentration of rhodomyrtone in rat plasma after a single oral administration of 50 and 100 mg/kg. Blood samples were collected from tail veins at 0, 0.25, 0.5, 1, 2, 3, 4, 5, 6, 7 and 8 h. […] Rhodomyrtone was analyzed using a Bondapak C18 HPLC column at 25 °C. […] HPLC system consisted of Waters Alliance 2695, a model 2487 UV-Vis detector (Waters Associates, Milford, MA, USA). The maximum UV absorbance of rhodomyrtone was detected from 250 to 310 nm. […]

{"MOLECULE": "CC(C)CC(=O)c1c(O)cc2c(c1O)[C@@H](CC(C)C)C1=C(O2)C(C)(C)C(=O)C(C)(C)C1=O [rhodomyrtone, Rhodomyrtone]", "Vd/F, L/kg": 46.6}

---

MEASUREMENT_DESCRIPTION: Pharmacokinetics of rhodomyrtone in rats after a single oral dose (HPLC-UV plasma analysis, non-compartment model)
Format: in vivo, Sprague Dawley rats
MEASUREMENT_CONTEXT: male, Sprague Dawley, rat, plasma, oral; estimated from SwissADME bioavailability score and AUC; no intravenous data
Experimental: The HPLC method was used to quantify the concentration of rhodomyrtone in rat plasma after a single oral administration of 50 and 100 mg/kg. Blood samples were collected from tail veins at 0, 0.25, 0.5, 1, 2, 3, 4, 5, 6, 7 and 8 h. […] Rhodomyrtone was analyzed using a Bondapak C18 HPLC column at 25 °C. […] HPLC system consisted of Waters Alliance 2695, a model 2487 UV-Vis detector (Waters Associates, Milford, MA, USA). The maximum UV absorbance of rhodomyrtone was detected from 250 to 310 nm. […]

{"MOLECULE": "CC(C)CC(=O)c1c(O)cc2c(c1O)[C@@H](CC(C)C)C1=C(O2)C(C)(C)C(=O)C(C)(C)C1=O [rhodomyrtone, Rhodomyrtone]", "bioavailability": "~10%"}
